Assign Ratio (pH 7.4/6.0) to each entry below.
Biological target: T1, cyno CD46 expressed on 293 cells (cynomolgus)
T1 construct: whole, on cells; The construct on the cells is not described; also called HEK 293 cells expressing cyno CD46
Assay: FACS, 293 cells expressing cyno CD46; EC50 at pH 7.4 over EC50 at pH 6.0
I'd appreciate a reply containing only the number, no unit.

[Q] // query Ratio (pH 7.4/6.0) value for entry BA-133-04-02 (antibody, V domains shown, also called CPE hit BA133-04-02) VH: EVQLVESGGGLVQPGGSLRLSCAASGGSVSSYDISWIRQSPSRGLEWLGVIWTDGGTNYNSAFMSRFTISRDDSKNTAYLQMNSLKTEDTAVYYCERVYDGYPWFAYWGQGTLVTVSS VL: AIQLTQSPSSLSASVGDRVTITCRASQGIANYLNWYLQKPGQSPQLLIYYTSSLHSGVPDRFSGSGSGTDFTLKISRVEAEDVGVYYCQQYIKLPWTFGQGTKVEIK
[A] 10.4

[Q] // query Ratio (pH 7.4/6.0) value for entry BA-133-04-04 (antibody, V domains shown, the killing assays used the ADC form; also called CPE hit BA133-04-04) VH: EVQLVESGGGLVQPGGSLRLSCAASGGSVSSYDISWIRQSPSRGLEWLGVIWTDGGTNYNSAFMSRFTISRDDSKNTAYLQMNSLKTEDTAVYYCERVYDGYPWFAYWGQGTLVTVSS VL: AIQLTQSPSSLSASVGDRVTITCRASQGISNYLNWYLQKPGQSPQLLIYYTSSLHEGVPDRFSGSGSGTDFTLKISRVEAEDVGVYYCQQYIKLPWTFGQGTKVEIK
[A] 10

[Q] // query Ratio (pH 7.4/6.0) value for entry Benchmark (BM) BA-133-00-01 (antibody, V domains shown, the killing assays used the ADC form; Conjugation site and payload are not described; also called BM (bench mark)) VH: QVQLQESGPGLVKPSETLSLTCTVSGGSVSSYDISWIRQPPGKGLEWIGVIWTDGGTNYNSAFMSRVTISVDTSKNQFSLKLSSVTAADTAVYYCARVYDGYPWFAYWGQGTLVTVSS VL: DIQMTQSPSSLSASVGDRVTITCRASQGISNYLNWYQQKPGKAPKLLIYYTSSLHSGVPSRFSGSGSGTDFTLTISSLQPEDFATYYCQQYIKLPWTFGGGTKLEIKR
[A] 1.5

[Q] // query Ratio (pH 7.4/6.0) value for entry BA-133-04-01 (antibody, V domains shown, also called CPE hit BA133-04-01) VH: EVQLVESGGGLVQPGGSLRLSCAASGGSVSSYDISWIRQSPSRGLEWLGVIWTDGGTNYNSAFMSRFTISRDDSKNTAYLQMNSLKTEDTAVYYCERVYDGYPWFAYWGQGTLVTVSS VL: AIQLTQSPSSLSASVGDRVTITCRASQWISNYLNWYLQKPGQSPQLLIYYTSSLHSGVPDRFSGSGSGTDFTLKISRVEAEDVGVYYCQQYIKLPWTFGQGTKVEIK
[A] 8.4
